Can you tell me dose excreted at 100 min for the items I'm about to list?
# Experiment: Drug excretion in Lai:COX (Standard)BR mouse urine at 17 mg/kg, po after 100 mins
# Type: ADME, organism-based
# Design: dose 17 mg/kg, route oral
# Reported Conditions: read-out: Drug excretion

Query string: Name the recorded dose excreted at 100 min for `Cc1nnc(SCC2=C(C(=O)OCOC(=O)C(C)(C)C)N3C(=O)[C@@H](NC(=O)[C@H](N)c4ccccc4)[C@H]3SC2)s1.Cl` .
Result string: 41.8%

Query string: Also check Cc1nnc(SCC2=C(C(=O)OC3OC(=O)c4ccccc43)N3C(=O)[C@@H](NC(=O)[C@H](N)c4ccccc4)[C@H]3SC2)s1.Cl (some centres undefined)
Result string: 34%

Query string: Also check `Cc1nnc(SCC2=C(C(=O)O)N3C(=O)[C@@H](NC(=O)[C@H](N)c4ccccc4)[C@H]3SC2)s1`
Result string: 22.4%

Query string: Also check `CC(=O)OCOC(=O)C1=C(CSc2nnc(C)s2)CS[C@@H]2[C@H](NC(=O)[C@H](N)c3ccccc3)C(=O)N12.Cl`
Result string: 38.3%
